Provenance of the data: patent US20090291081A1

Biological target: T1, human IL-1β (human, UniProt P01584 117-269)
T1 construct: antigen of the ABT2 dAbs; also called hIL-1β; IL-1 beta
Experiment: IC50 column of Table 63; receptor binding assay presumed
I'd be grateful if you could share measured log10 of IC50 for these entries.
Could you please treat all values as log10 of IC50 in nM?

Q: For ABT2-65-18 (other, VH dAb) VH: EVQLLESGGGLVQPGGSLRLSCAASGFTFGDYQMGWVRQAPGKGLEWVSSISAMGNRTYYADSVKGRFTISRDDSKNTLYLQMNSLRAEDTAVYYCAENLVQWRIGAWMFDYWGQGTLVTVSS , what is its reported log10 of IC50?
Ans: 1.30

Q: Same question for ABT2-65-31 (other, VH dAb) VH: EVQLLESGGGLVQPGGSLRLSCAASGFTFEDYQMGWVRQAPGKGLEWVSSISAMGNRTYYADSVKGRFTISRDDSKNTLYLQMNSLRAEDTAVYYCAQNLVKIMRLKWMFDYWGQGTLVTVSS please.
Ans: 0.48

Q: Same question for ABT2-65-84 (other, VH dAb) VH: EVQLLESGGGLVQPGGSLRLSCVASGFSFEDYQMGWVRQAPRKGLEWISSISAMGNRTYYADSVKGRFTISRDDSKNTLYLQMNSLRAEDTAVYYCAQNLVRLGRSRWMFDYWGQGTLVTVSS please.
Ans: 1.78

Q: Same question for ABT2-65-140 (other, VH dAb) VH: EVQLLESGGGLVQPGGSLRLSCAASGFTFEDYQMGWVRQAPGKGLEWVSSISAMGNRTYYADSVKGRFTISRDDSKNTLYLQMNSLRAEDTAVYYCAENLVKISRRHWMFDYWGQGTLVTVSS please.
Ans: 0.30

Q: Same question for ABT2-65-24 (other, VH dAb) VH: EVQLLESGGGLVQPGGSLRLSCAASGFTFAAYQMGWVRQAPGKGLEWVSSISAMGNRTYYADSVKGRFTISRDDSKNTLYLQMNSLRAEDTAVYYCAQNLVRTQSKMWMFDYWGQGTLVTVSS please.
Ans: 1.70

Q: Same question for ABT2-65-167 (other, VH dAb) VH: EVQLLESGGGLVQPGGSLRLSCAASGFTFEDYQMGWVRQAPGKGLEWVSSISAMGNRTYYADSVKGRFTISRDDSKNTLYLQMNSLRAEDTAVYYCAQNLVRWKKNEWMFDYWGQGTLVTVSS please.
Ans: 1.48

Q: Same question for ABT2-65-14 (other, VH dAb) VH: EVQLLESGGGLVQPGGSLRLSCAAPGFTFPYYPMGWVRQAPGKGLEWVSSISAMGNRTYYADSVKGRFTISRDDSKNTLYLQMNSLRAEDTAVYYCAKNLVRTQSKMWMFDYWGQGTLVTVSS please.
Ans: 3.00

Q: Same question for ABT2-65-154 (other, VH dAb) VH: EVQLLESGGGLVQPGGSLRLSCAASGFTFEDYQMGWVRQAPGKGLEWVSSISAMGNRTHYADSVKGRFTISRDDSKNTLYLQMNSLRAEDTAVYYCAQNLVRIRRTKWMFDYWGQGTLVTVSS please.
Ans: 0.48

Q: Same question for ABT2-65-76 (other, VH dAb) VH: EVQLLESGGGLVQPGGSLRLSCVASGFTFEDYQMGWVRQAPGKGLEWVTSISAMGNRTYYADSVKGRFTISRDDSKNTLYLQMNSLRAEDTAVYYCAQNLVRLGRSRWMFDYWGQGTLVTVSS please.
Ans: 0.90

Q: Same question for ABT2-65-1 (other, VH dAb) VH: EVQLLESGGGLVQPGGSLRLSCAASGFTFEDYQMGWVRQAPGKGLEWVSSISAMGNRTYYADSVKGRFTISRDDSKNTLYLQMKSLRAEDTAVYYCAQNLVRTQSKMWMFDYWGQGTLVTVSS please.
Ans: 2.00

Q: Same question for ABT2-65-114 (other, VH dAb) VH: EVQLLESGGGLVQPGGSLRLSCAASGFTFREYMMGWVRQAPGKGLEWVSSISAMGNRTYYADSVKGRFTISRDDSKNTLYLQMNSLRAEDTAVYYCAQNLVRLGRSRWMFDYWGQGTLVTVSS please.
Ans: 0.60

Q: Same question for ABT2-65 (other) VH: EVQLLESGGGLVQPGGSLRLSCAASGFTFEDYQMGWVRQAPGKGLEWVSSISAMGNRTYYADSVKGRFTISRDDSKNTLYLQMNSLRAEDTAVYYCAKNLVRTQSKMWMFDYWGQGTLVTVSS please.
Ans: 2.00

Q: Same question for ABT2-65-33 (other, VH dAb) VH: EVQLLESGGGLVQPGGSLRLSCAASGFTFEDYQMGWVRQAPGKGLEWVSSISAMGNRTYYADSVKGRFTISRDDSKNTLYLQMNSLRAEDTAVYYCAQNLVRYMKSQWMFDYWGQGTLVTVSS please.
Ans: 1.30

Q: Same question for ABT2-65-176 (other, VH dAb) VH: EVQLLESGGGLVQPGGSLRLSCAASGFTFEDYQMGWVRQAPGKGLEWVSSISAMGSRTYYADSVKGRFTISRDDSKNTLYLQMNSLRAEDTAVYYCAENLVKVARGRWMFDYWGQGTLVTVSS please.
Ans: 0.70

Q: Same question for ABT2-65-131 (other, VH dAb) VH: EVQLLESGGGLVQPRGSLRLSCVASGFTFEDYQMGWVRQAPGKGLEWVSSISTMGNRTYYADSVKGRFTISRDDSKNTLYLQMNSLRAEDTAVYHCAQNLVRLGRSRWMFDYWGQGTLVTVSS please.
Ans: 1.12
